Record form. Attribute: IC50. Fill in for each entry.
biological target: human kinase Mps-1 (Homo sapiens, UniProt P33981); construct: N-terminally GST-tagged human full length recombinant Mps-1 kinase; GST (N); assay: Mps-1 kinase assay (TR-FRET); details: Mps-1 TR-FRET kinase assay; avg; read-out: Mps1 avg (IC50 [mol/l])
Sequence (P33981 whole entry): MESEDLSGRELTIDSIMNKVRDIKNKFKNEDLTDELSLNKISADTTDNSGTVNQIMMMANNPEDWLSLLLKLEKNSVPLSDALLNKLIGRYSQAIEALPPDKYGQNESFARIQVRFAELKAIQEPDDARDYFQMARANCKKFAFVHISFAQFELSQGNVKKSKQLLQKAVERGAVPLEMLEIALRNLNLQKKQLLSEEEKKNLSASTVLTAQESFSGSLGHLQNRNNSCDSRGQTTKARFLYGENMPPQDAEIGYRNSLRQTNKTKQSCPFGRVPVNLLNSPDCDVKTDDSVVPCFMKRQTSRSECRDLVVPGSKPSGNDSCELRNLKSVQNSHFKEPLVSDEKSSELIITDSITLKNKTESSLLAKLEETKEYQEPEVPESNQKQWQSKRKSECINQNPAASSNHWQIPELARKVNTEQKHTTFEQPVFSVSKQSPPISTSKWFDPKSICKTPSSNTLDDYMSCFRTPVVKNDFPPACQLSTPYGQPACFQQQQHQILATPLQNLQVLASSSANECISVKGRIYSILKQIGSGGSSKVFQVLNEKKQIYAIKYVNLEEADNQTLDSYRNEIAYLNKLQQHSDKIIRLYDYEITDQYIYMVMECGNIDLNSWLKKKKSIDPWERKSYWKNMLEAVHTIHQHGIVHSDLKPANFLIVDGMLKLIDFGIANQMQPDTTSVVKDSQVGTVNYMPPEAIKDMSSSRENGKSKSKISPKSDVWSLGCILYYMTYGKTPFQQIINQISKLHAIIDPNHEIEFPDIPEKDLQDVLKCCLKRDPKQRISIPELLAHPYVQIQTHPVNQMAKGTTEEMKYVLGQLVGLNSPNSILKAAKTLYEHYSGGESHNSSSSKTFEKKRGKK

[[record]]
compound = "Cc1nsc(Nc2cnc(C(F)(F)F)cn2)c1C(=O)Nc1ccc(OCCNC(=O)C(F)(F)F)nc1 [Example 425]"
property_name = "IC50"
result = "≥ 20 µM"

[[record]]
compound = "Cc1nsc(Nc2ccc(C#N)cn2)c1C(=O)Nc1ccc(Oc2cccc(C(F)(F)F)c2)nc1 [Example 118]"
property_name = "IC50"
result = "≥ 20 µM"

[[record]]
compound = "Cc1nsc(Nc2cnc(C(F)(F)F)cn2)c1C(=O)Nc1ccc(OC2CCN(C(C)C)CC2)nc1 [Example 160]"
property_name = "IC50"
result = "> 20 µM"


Now consider a different compound.
Query: Any idea what IC50 was measured for Cc1nsc(Nc2cnc3ccccc3n2)c1C(=O)Nc1cccc(NS(=O)(=O)C2CCN(CCC(F)(F)F)CC2)c1 [Example 283] ?
Reply: > 20 µM

###

target: CDK2/CycE (Homo sapiens); construct: GST; assay: CDK2/CycE kinase assay (TR-FRET); conditions: avg, read-out: CDK2 avg (IC50 [mol/l])
Property name: IC50

Recorded results for 5 molecules are shown here.
[[record]]
record_smiles = "Cc1nsc(Nc2cncc(C(F)(F)F)n2)c1C(=O)Nc1ccc(OC2CCN(CCC(F)(F)F)CC2)nc1"
property_name = "IC50"
result = "> 20 µM"

[[record]]
record_smiles = "Cc1nsc(Nc2cnc(C(F)(F)F)cn2)c1C(=O)Nc1ccc(OCC2CCN(C(=O)OC(C)(C)C)CC2)nc1"
property_name = "IC50"
result = "> 20 µM"

[[record]]
record_smiles = "Cc1nsc(Nc2cnc(C(F)(F)F)cn2)c1C(=O)Nc1ccc(OCCNCCC(F)(F)F)nc1"
property_name = "IC50"
result = "≥ 20 µM"

[[record]]
record_smiles = "Cc1nsc(Nc2cnc(C(F)(F)F)cn2)c1C(=O)Nc1ccc(C(=O)O)cc1"
property_name = "IC50"
result = "≥ 20 µM"

[[record]]
record_smiles = "Cc1nsc(Nc2cnc(C(F)(F)F)cn2)c1C(=O)Nc1ccc(O[C@@H]2CCN(CCC(F)(F)F)C[C@@H]2F)nc1"
property_name = "IC50"
result = "> 20 µM"


Hello, I would appreciate it if you could give IC50 for each entry below.
1. Cc1nsc(Nc2cnc3ccccc3n2)c1C(=O)Nc1ccc(OC2CCN(CC(F)F)CC2)nc1
2. Cc1nsc(Nc2cnc(C(F)(F)F)cn2)c1C(=O)Nc1cccc(S(C)(=O)=O)c1

Reply:
1: ≥ 20 µM; 2: > 20 µM

###

tested on: HeLa; assay: Proliferation assay (crystal violet), HeLa; format: cell-based; conditions: Homo sapiens, HeLa, 96 h, HeLa cells; 4 days incubation; crystal violet staining; read-out: IC50 inhibition of proliferation, HeLa
pIC50: −log10 of the molar value.
Binary classification by pIC50, with 6 as an inclusive lower bound for true (1); all other cases are false (0).

[[record]]
compound = "Cc1nsc(Nc2cc(C#N)ccn2)c1C(=O)Nc1cccc(C(=O)NC2CC2)c1 [Example 175]"
class_name = "false (0)"

[[record]]
compound = "Cc1nsc(Nc2cnc3ccccc3n2)c1C(=O)Nc1ccc(NC(=O)C(C)(C)C)cc1 [Example 185]"
class_name = "false (0)"

[[record]]
compound = "Cc1nsc(Nc2cnc(C(F)(F)F)cn2)c1C(=O)Nc1ccc(OC2CCN(CC(F)F)CC2)nc1 [Example 8]"
class_name = "true (1)"

[[record]]
compound = "Cc1nsc(Nc2cnc(C(F)(F)F)cn2)c1C(=O)Nc1ccc(O[C@@H]2CCN(CC(F)(F)F)C2)nc1 [Example 380]"
class_name = "true (1)"

[[record]]
compound = "Cc1nsc(Nc2cnc(C(F)(F)F)cn2)c1C(=O)Nc1ccc(OC[C@@H]2CCN(CC(F)(F)F)C2)nc1 [Example 128]"
class_name = "true (1)"


Query: Say whether Cc1nsc(Nc2cc(C#N)ccn2)c1C(=O)Nc1ccc(Oc2cccc(C(F)(F)F)c2)nc1 [Example 230] shows pIC50 of 6 or more.
Reply: true (1)

Query: Check if pIC50 >= 6 (inclusive). Item: Cc1nsc(Nc2ccc(C#N)cn2)c1C(=O)Nc1cccc(N)c1 [Example 180]
Reply: false (0)

Query: Test whether the compound Cc1nsc(Nc2cnc3ccccc3n2)c1C(=O)Nc1cccc(C(=O)NCCCN2CCOCC2)c1 [Example 95] records pIC50 of 6 or higher.
Reply: false (0)
